Sourced from PubChem BioAssay AID1159580

Assay: chemical genetic growth profiling, strain panel (AID 1159580);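 further: tested at 20 µM; growth read once vehicle control cultures reached saturation at 30 °C; 1 = growth at the plate median or of vehicle wells; lower values mean less growth of the strain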
Settings: S. cerevisiae deletion strains, growth OD, locus YGL167C, strain pmr1
In all, about 5,500 compounds went through this assay and about 2,000 (36%) were called active. Not shown: some 18% with an inconclusive outcome. No stated cut-off is given here; in the data, active means normalized growth mostly below about 0.91 (no sharp cut-off); inconclusive means no clear call, values can overlap the other calls; inactive means mostly above about 0.92. This is one part of the list. Where a SMILES comes first, the peptide text is derived from it.
Outcomes: label 1 = active, label 0 = inactive

| compound | assigned class |
| --- | --- |
| CC(=O)N[C@@H](CC(=O)O)C(=O)N[C@@H](CCC(=O)O)C(=O)O (Ac-Asp-Glu-OH) | label 0 |
| Clc1ccc(C(Cn2ccnc2)OCc2ccsc2Cl)c(Cl)c1 (configuration not stated) | label 1 |
| CC(=O)Oc1ccc2c(c1)CCC1C2CC[C@]2(C)C(=O)CCC12 (some centres not stated) | label 0 |
| C[C@@H]1CC[C@H]2C(C)(C)C3CC12CC[C@@]3(C)O (some centres not stated) | label 0 |
| CC12CCC3C(=CCc4cc(O)ccc43)C1CCC2=O (configuration not stated) | label 0 |
| COc1cc2c(cc1OC)C1(O)C(=O)c3ccc(O)c(C(=O)O)c3OC1CO2 (configuration not stated) | label 0 |
| COc1ccc2nc(S(=O)Cc3ncc(C)c(OC)c3C)[nH]c2c1 (configuration not stated) | label 0 |
| O=C1CCCN1CC#CCN1CCCC1 | label 0 |
| CC1OC(O[C@H]2/C=C/C=C/C=C/C=C/C=C/C=C/C=C/[C@H](C)[C@@H](O)[C@@H](C)[C@H](C)OC(=O)CC(O)CC(O)CCC(O)C(O)CC(O)C[C@]3(O)C[C@H](O)C(C(=O)O)C(C2)O3)C(O)[C@H](N)C1O (some centres not stated) | label 0 |
| O=C(O)COc1ccc(Cl)cc1Cl | label 0 |
| COc1cc(NS(C)(=O)=O)ccc1Cc1c2ccccc2nc2ccccc12 | label 0 |
| CC(=O)O[C@]1(C)CC[C@@]23CC1C(C)(C)[C@@H]2CC[C@H]3C | label 0 |
| COc1ccc2c(c1)OCC(Cc1ccc(OC)c(OC)c1)C2=O (configuration not stated) | label 0 |
| COC(=O)[C@@H]1OC(=O)C2OC23[C@@]1(C)CCC1[C@]2(C)C(C[C@@H](O)[C@]13C)C(C)(C)[C@H](OC(C)=O)C[C@@H]2OC(C)=O (some centres not stated) | label 0 |
| COc1c(C)c2c(c(O)c1C/C=C(\C)CCC(=O)O)C(=O)OC2 | label 1 |
| Clc1ccc(C(c2ccccc2Cl)C(Cl)Cl)cc1 (configuration not stated) | label 0 |
| O=C(O)CCCCCCCC(=O)O | label 0 |
| Clc1ccccc1CN1CCc2sccc2C1 | label 0 |
| CC(C)/C(O)=C1/C(=O)O[C@@H](c2ccoc2)[C@]2(C)C(O)[C@@H](O)[C@@]34OC5(C)OC67CC(C)(C(O)[C@]6(O)[C@@H](O)[C@]3(O5)C12)[C@H](CC(=O)O)[C@]74C (some centres not stated) | label 0 |
| COc1ccnc(CS(=O)c2nc3ccc(OC(F)F)cc3[nH]2)c1OC (configuration not stated) | label 0 |
| COP(=S)(OC)Oc1ccc([N+](=O)[O-])cc1 | label 0 |
| C1N2CN3CN1CN(C2)C3 | label 0 |

---

Experiment: chemical genetic growth profiling, strain panel (AID 1159580);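 further: tested at 20 µM; growth read once vehicle control cultures reached saturation at 30 °C; 1 = growth at the plate median or of vehicle wells; lower values mean less growth of the strain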
Conditions: S. cerevisiae deletion strains, growth OD, locus YJL095W, strain BCK1 (second series), hits give low values
Among all 5,500 compounds or so, about 2,000 (36%) were called active. Inconclusive results (about 18%) are left out. The list shows a part of the results.

| compound | normalized growth |
| --- | --- |
| CC(C)(S)[C@@H](N)C(=O)O | 1 |
| O=C(O)C(O)C(O)C(=O)O (stereo unspecified) | 1 |
| NCCCCCC(=O)O | 0.985 |
| CC(=O)Oc1ccc2c(c1)CCC1C2CC[C@]2(C)C(=O)CCC12 (stereo partly specified) | 0.985 |
| Clc1ccc(C(c2ccccc2Cl)C(Cl)Cl)cc1 (stereo unspecified) | 0.973 |
| CCN1C[C@@]2(COC)C3[C@@H](OC)[C@H]4[C@@H]1[C@]3(C(OC)C[C@H]2O)C1C[C@@]2(O)[C@H](OC(=O)c3ccccc3)C1[C@]4(OC(C)=O)[C@@H](O)[C@@H]2OC (stereo partly specified) | 1.02 |
| O=c1oc2ccccc2cc1O | 0.982 |
| FC(F)(F)c1cccc(N2CCNCC2)c1 | 0.995 |
| COC(=O)[C@@H]1OC(=O)C2OC23[C@@]1(C)CCC1[C@]2(C)C(C[C@@H](O)[C@]13C)C(C)(C)[C@H](OC(C)=O)C[C@@H]2OC(C)=O (stereo partly specified) | 0.989 |
| O=C(O)CCC1NCC2CC1CN1CCCCC21 (stereo unspecified) | 0.976 |
| COc1ccc(CCC(=O)c2c(O)cc(O[C@@H]3O[C@H](CO)C(O)[C@H](O)C3O[C@@H]3O[C@@H](C)[C@H](O)[C@@H](O)[C@H]3O)cc2O)cc1O (stereo partly specified) | 1.01 |
| CC(C)c1nc(N(C)S(C)(=O)=O)nc(-c2ccc(F)cc2)c1/C=C/[C@@H](O)C[C@@H](O)CC(=O)O | 0.986 |
| NCC[C@@H](O)C(=O)N[C@@H]1C[C@H](N)[C@@H](O[C@H]2O[C@H](CN)[C@@H](O)[C@H](O)[C@H]2O)[C@H](O)[C@H]1O[C@H]1O[C@H](CO)[C@@H](O)[C@H](N)C1O (stereo partly specified) | 1 |
| NCCCNCCSP(=O)(O)O | 0.983 |
| O=C(O)CCCCCCCC(=O)O | 1.01 |
| CC1[C@H](C)OC(=O)CC(O)CC(O)CC(O)CCC(O)C(O)C[C@]2(O)CC(O)C(C(=O)O)C(CC(OC3O[C@H](C)[C@@H](O)[C@H](N)[C@@H]3O)/C=C/C=C/C=C/C=C/CC/C=C/C=C/[C@H](C)[C@H]1O)O2 (stereo partly specified) | 0.994 |

---

Examples of compounds with documented normalized growth follow.
Test: chemical genetic growth profiling, strain panel (AID 1159580);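 further: tested at 20 µM; growth read once vehicle control cultures reached saturation at 30 °C; 1 = growth at the plate median or of vehicle wells; lower values mean less growth of the strain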
Conditions: S. cerevisiae deletion strains, growth OD, locus YOR069W, strain VPS5, hits give low values
Among all 5,500 compounds or so, about 2,000 (36%) were called active. Not shown: some 18% with an inconclusive outcome. Some of the results follow. Where a SMILES comes first, the peptide text is derived from it.

| compound | normalized growth |
| --- | --- |
| CC(C)(S)[C@@H](N)C(=O)O | 1 |
| CC(=O)O[C@]1(C)CC[C@@]23CC1C(C)(C)[C@@H]2CC[C@H]3C | 1 |
| NCCCCCC(=O)O | 0.994 |
| C[C@@H]1CC[C@H]2C(C)(C)C3CC12CC[C@@]3(C)O (some centres not stated) | 0.998 |
| Clc1ccc(COC(Cn2ccnc2)c2ccc(Cl)cc2Cl)cc1 (configuration not stated) | 0.0468 |
| CC(=O)C1CC[C@H]2C3CC[C@H]4C[C@H](O)CC[C@]4(C)C3CC[C@]12C (some centres not stated) | 0.988 |
| Cc1cccc(C)c1NC(=O)C1CCCCN1C (configuration not stated) | 0.999 |
| Cc1cc(CC(=O)O)n(C)c1C(=O)c1ccc(Cl)cc1 | 1 |
| CC(=O)N[C@@H](CC(=O)O)C(=O)N[C@@H](CCC(=O)O)C(=O)O (Ac-Asp-Glu-OH) | 1.01 |
| CC(=O)NCCc1c[nH]c2ccc(O)cc12 | 0.997 |
| Cc1cc(/C=C/c2ccc3cc(N(C)C)ccc3[n+]2C)c(C)n1-c1ccccc1 | 0.995 |
| CC(=O)C1CCC2C3CCC4C[C@H](O)CCC4(C)C3C[C@H](O)C12C (some centres not stated) | 1.02 |
| C[C@]12C=CC(=O)C=C1CCC1C2[C@@H](O)C[C@@]2(C)C1CC[C@]2(O)C(=O)CO (some centres not stated) | 0.99 |
| N[C@@H](C(=O)O)[C@@H](O)[C@H](O)[C@H](O)CO | 1.01 |
| COC(=O)[C@@H]1OC(=O)C2OC23[C@@]1(C)CCC1[C@]2(C)C(C[C@@H](O)[C@]13C)C(C)(C)[C@H](OC(C)=O)C[C@@H]2OC(C)=O (some centres not stated) | 1.01 |
| FC(F)(F)c1cccc(N2CCNCC2)c1 | 1 |
| CN=C(N)NCCCC(N)C(=O)O (configuration not stated) | 1.01 |
| CN1CCC[C@@H]1CCO[C@](C)(c1ccccc1)c1ccc(Cl)cc1 | 1 |
| Cc1onc(-c2ccccc2)c1-c1ccc(S(N)(=O)=O)cc1 | 1 |
| CCCNC(=O)NS(=O)(=O)c1ccc(Cl)cc1 | 0.992 |
| CC(=O)O[C@@H]1CC2C(C)(C)[C@@H](O)CC[C@]2(C)C2CC[C@@]3(C)[C@H](c4ccoc4)OC(=O)[C@H]4O[C@]43[C@@]21C (some centres not stated) | 1.01 |
| C[C@]12CCC3C(CC[C@H]4C[C@@H](O)CC[C@]34C)C1CC[C@@H]2O (some centres not stated) | 1.02 |
| CCN1C[C@@]2(COC)C3[C@@H](OC)[C@H]4[C@@H]1[C@]3(C(OC)C[C@H]2O)C1C[C@@]2(O)[C@H](OC(=O)c3ccccc3)C1[C@]4(OC(C)=O)[C@@H](O)[C@@H]2OC (some centres not stated) | 1.01 |
| CC(=O)OC1CC(OC(C)=O)C2(C)C(CC(OC(C)=O)C3(C)C2CCC2(C)C(c4ccoc4)OC(=O)C4OC423)C1(C)C (configuration not stated) | 0.963 |
| COc1cc(OC)c2c(=O)cc(-c3ccccc3)oc2c1 | 0.95 |
| O=c1[nH]c(=O)n(C2C[C@H](O)[C@@H](CO)O2)cc1C(F)(F)F (some centres not stated) | 0.983 |
| O=C(O)C(O)C(O)C(O)C(O)C(=O)O (configuration not stated) | 1 |
| CC(=O)O[C@H]1C[C@@H](OC(C)=O)C(C)(C)C2C[C@@H](O)[C@]3(C)C(CC[C@@]4(C)[C@H](c5ccoc5)OC(=O)[C@H]5O[C@]543)[C@]21C (some centres not stated) | 1 |
| NCC[C@@H](O)C(=O)N[C@@H]1C[C@H](N)[C@@H](O[C@H]2O[C@H](CN)[C@@H](O)[C@H](O)[C@H]2O)[C@H](O)[C@H]1O[C@H]1O[C@H](CO)[C@@H](O)[C@H](N)C1O (some centres not stated) | 1.01 |
| Clc1ccc(CSC(Cn2ccnc2)c2ccc(Cl)cc2Cl)cc1 (configuration not stated) | 0.0456 |
| NCCCC(=O)O | 1 |
| C=C[C@@]1(C)CC(=O)[C@@]2(O)[C@](C)(O1)[C@@H](OC(C)=O)[C@@H](O)C1C(C)(C)CC[C@H](O)[C@@]12C (some centres not stated) | 0.993 |
